Measured clearance by item
- experiment description: Half-lives and pharmacokinetic parameters of polypeptides vs HM-1
- details: in vivo
Peptide text beside a SMILES is read from it. * marks the point of attachment. Propanoyl(3-maleimido) = O=C1C=CC(=O)N1CCC(=O)*; X56 = O=C1C=CC(=O)N1c1ccc(CCC(=O)*)cc1; X70 = O=C1C=CC(=O)N1CCOCCOCCOCCCC(=O)*

molecule: C[C@H](NC(=O)[C@H](CCCNC(=N)N)NC(=O)[C@H](CC(=O)O)NC(=O)[C@H](CCC(=O)O)NC(=O)CNC(=O)[C@H](CCCNC(=N)N)NC(=O)CCN1C(=O)C=CC1=O)C(=O)NCC(=O)NCC(=O)NCC(=O)NCC(=O)N[C@@H](CCCNC(=N)N)C(=O)NCC(=O)N[C@@H](CC(=O)O)C(=O)O [P5] ({Propanoyl(3-maleimido)}-RGEDRAGGGGRGD-OH; C-terminus assumed)
clearance / mL/min/kg: 0.57

molecule: C[C@H](NC(=O)CNC(=O)[C@H](CCCNC(=N)N)NC(=O)CCCOCCOCCOCCN1C(=O)C=CC1=O)C(=O)N[C@@H](CC(=O)O)C(=O)N[C@@H](CCCNC(=N)N)C(=O)N[C@@H](C)C(=O)NCC(=O)NCC(=O)NCC(=O)NCC(=O)N[C@@H](CCCNC(=N)N)C(=O)NCC(=O)N[C@@H](CC(=O)O)C(=O)O [X65] (X70-RGADRAGGGGRGD-OH)
clearance / mL/min/kg: 0.523

molecule: C[C@H](NC(=O)CNC(=O)[C@H](CCCNC(=N)N)NC(=O)CCc1ccc(N2C(=O)C=CC2=O)cc1)C(=O)N[C@@H](CC(=O)O)C(=O)N[C@@H](CCCNC(=N)N)C(=O)N[C@@H](C)C(=O)NCC(=O)NCC(=O)NCC(=O)NCC(=O)N[C@@H](CCCNC(=N)N)C(=O)NCC(=O)N[C@@H](CC(=O)O)C(=O)O [X38] (X56-RGADRAGGGGRGD-OH)
clearance / mL/min/kg: 0.532

----------
Measured half-life by item
- experiment description: Half-lives and pharmacokinetic parameters of polypeptides vs HM-1
- details: in vivo, T1/2β (half-life)
Peptide text beside a SMILES is read from it. * marks the point of attachment. X39 = O=C1C=CC(=O)N1c1ccc(CCCCCCCCCCC(=O)*)cc1; X73 = O=C1C=CC(=O)N1c1ccc(CCCCCCCCCC(=O)*)cc1; X44 = O=C1C=CC(=O)N1c1ccc(CCCCCCCC(=O)*)cc1; X71 = O=C1C=CC(=O)N1c1cccc(CCCCCC(=O)*)c1; X49 = O=C1C=CC(=O)N1c1ccccc1CCCCCC(=O)*; X3 = O=C1C=CC(=O)N1CCOCCOCCCCC(=O)*

compound: C[C@H](NC(=O)CNC(=O)[C@H](CCCNC(=N)N)NC(=O)CCCCCc1cccc(N2C(=O)C=CC2=O)c1)C(=O)N[C@@H](CC(=O)O)C(=O)N[C@@H](CCCNC(=N)N)C(=O)N[C@@H](C)C(=O)NCC(=O)NCC(=O)NCC(=O)NCC(=O)N[C@@H](CCCNC(=N)N)C(=O)NCC(=O)N[C@@H](CC(=O)O)C(=O)O [X29] (X71-RGADRAGGGGRGD-OH)
half-life [h]: 39.9
//
compound: C[C@H](NC(=O)CNC(=O)[C@H](CCCNC(=N)N)NC(=O)CCCCCCCCCc1ccc(N2C(=O)C=CC2=O)cc1)C(=O)N[C@@H](CC(=O)O)C(=O)N[C@@H](CCCNC(=N)N)C(=O)N[C@@H](C)C(=O)NCC(=O)NCC(=O)NCC(=O)NCC(=O)N[C@@H](CCCNC(=N)N)C(=O)NCC(=O)N[C@@H](CC(=O)O)C(=O)O [X45] (X73-RGADRAGGGGRGD-OH)
half-life [h]: 30.1
//
compound: C[C@H](NC(=O)CNC(=O)[C@H](CCCNC(=N)N)NC(=O)CCCCCCCc1ccc(N2C(=O)C=CC2=O)cc1)C(=O)N[C@@H](CC(=O)O)C(=O)N[C@@H](CCCNC(=N)N)C(=O)N[C@@H](C)C(=O)NCC(=O)NCC(=O)NCC(=O)NCC(=O)N[C@@H](CCCNC(=N)N)C(=O)NCC(=O)N[C@@H](CC(=O)O)C(=O)O [X43] (X44-RGADRAGGGGRGD-OH)
half-life [h]: 33.1
//
compound: C[C@H](NC(=O)CNC(=O)[C@H](CCCNC(=N)N)NC(=O)CCCCCc1ccccc1N1C(=O)C=CC1=O)C(=O)N[C@@H](CC(=O)O)C(=O)N[C@@H](CCCNC(=N)N)C(=O)N[C@@H](C)C(=O)NCC(=O)NCC(=O)NCC(=O)NCC(=O)N[C@@H](CCCNC(=N)N)C(=O)NCC(=O)N[C@@H](CC(=O)O)C(=O)O [X17] (X49-RGADRAGGGGRGD-OH)
half-life [h]: 37.3
//
compound: C[C@H](NC(=O)CNC(=O)[C@H](CCCNC(=N)N)NC(=O)CCCCCCCCCCc1ccc(N2C(=O)C=CC2=O)cc1)C(=O)N[C@@H](CC(=O)O)C(=O)N[C@@H](CCCNC(=N)N)C(=O)N[C@@H](C)C(=O)NCC(=O)NCC(=O)NCC(=O)NCC(=O)N[C@@H](CCCNC(=N)N)C(=O)NCC(=O)N[C@@H](CC(=O)O)C(=O)O [X46] (X39-RGADRAGGGGRGD-OH)
half-life [h]: 39.2
//
compound: C[C@H](NC(=O)CNC(=O)[C@H](CCCNC(=N)N)NC(=O)CCCCOCCOCCN1C(=O)C=CC1=O)C(=O)N[C@@H](CC(=O)O)C(=O)N[C@@H](CCCNC(=N)N)C(=O)N[C@@H](C)C(=O)NCC(=O)NCC(=O)NCC(=O)NCC(=O)N[C@@H](CCCNC(=N)N)C(=O)NCC(=O)N[C@@H](CC(=O)O)C(=O)O [X59] (X3-RGADRAGGGGRGD-OH)
half-life [h]: 37.5
